Reference source for all entries: patent US8415375B2

- studyTarget: hERG K+ channel (Homo sapiens, UniProt Q12809)
- Construct: host or cells: CHO-K1 (CHOhERG)
- Sequence (Q12809 whole entry): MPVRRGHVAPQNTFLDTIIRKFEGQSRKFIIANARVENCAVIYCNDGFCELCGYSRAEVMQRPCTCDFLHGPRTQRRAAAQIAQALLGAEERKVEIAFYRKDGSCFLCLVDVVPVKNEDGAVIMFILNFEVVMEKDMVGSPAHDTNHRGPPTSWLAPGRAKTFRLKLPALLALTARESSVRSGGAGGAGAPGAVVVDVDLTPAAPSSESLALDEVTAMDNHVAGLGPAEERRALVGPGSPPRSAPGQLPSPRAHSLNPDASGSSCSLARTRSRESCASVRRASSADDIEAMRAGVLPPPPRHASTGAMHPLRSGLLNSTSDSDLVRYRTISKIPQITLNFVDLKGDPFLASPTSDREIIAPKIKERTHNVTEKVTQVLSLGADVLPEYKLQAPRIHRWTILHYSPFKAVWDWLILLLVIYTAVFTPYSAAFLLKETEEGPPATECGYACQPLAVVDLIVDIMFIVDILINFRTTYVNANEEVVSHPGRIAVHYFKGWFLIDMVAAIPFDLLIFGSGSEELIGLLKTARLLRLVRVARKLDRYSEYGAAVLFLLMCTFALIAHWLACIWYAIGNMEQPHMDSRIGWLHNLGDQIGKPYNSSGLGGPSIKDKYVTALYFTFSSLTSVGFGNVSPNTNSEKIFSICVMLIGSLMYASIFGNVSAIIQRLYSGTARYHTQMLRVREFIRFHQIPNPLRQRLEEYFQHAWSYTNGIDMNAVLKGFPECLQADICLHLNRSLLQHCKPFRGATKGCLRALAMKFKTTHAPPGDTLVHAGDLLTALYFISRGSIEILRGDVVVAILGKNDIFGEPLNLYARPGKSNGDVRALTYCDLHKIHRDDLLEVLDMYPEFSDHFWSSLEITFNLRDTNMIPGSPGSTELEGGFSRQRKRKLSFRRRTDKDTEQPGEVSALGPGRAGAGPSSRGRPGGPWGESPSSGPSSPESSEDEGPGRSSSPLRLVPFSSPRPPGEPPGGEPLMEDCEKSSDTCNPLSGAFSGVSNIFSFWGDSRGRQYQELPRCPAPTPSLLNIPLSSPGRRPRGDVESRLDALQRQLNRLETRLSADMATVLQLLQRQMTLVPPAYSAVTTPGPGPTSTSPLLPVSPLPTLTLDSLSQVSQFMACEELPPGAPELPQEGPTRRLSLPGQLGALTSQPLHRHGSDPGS
- assayMethodText: In vitro blocking of hERG K+ channels (QPatch automated patch-clamp, CHO-K1 cells)
- Assay type: cell-based
- experimentalParameters: pH 7.4, at 10 μM, recombinant hERG in CHO-K1 cells, average block on two cells
measurementKind: inhibition at 4 min, 10 µM (%)
Dear colleague, please return just the value in %, with no unit written.

Please review the entries below; each comes with its answer.
In [3]: df
Out[3]:
                                   molecule  obsvalue
0  COc1ccc2ncc(=O)n(C[C@H](O)[C@@H]3CC[C@@H](NCc4cc5c(cn4)OCCS5)CO3)c2n1        45
1  COc1cnc2ccc(=O)n(C[C@H](O)[C@@H]3CC[C@@H](NCc4cc5c(cn4)OCCO5)CO3)c2n1         5
2  COc1ccc2ncc(=O)n(C[C@H](O)C3CCC(NCc4cc5c(cn4)OCCO5)CC3)c2c1 (some centres unmarked)        18
3  COc1ccc2ccc(=O)n(C[C@H](O)[C@@H]3CC[C@@H](NCc4cc5c(nn4)OCCS5)CO3)c2n1         6

Log: hERG K+ channel (Homo sapiens, UniProt Q12809), molecule COc1ccc2ccc(=O)n(C[C@H](O)[C@@H]3CC[C@@H](NCc4cc5c(cn4)OCCO5)CO3)c2n1 , inhibition at 4 min, 10 µM = 18

Entry COc1cnc2ccc(=O)n(C[C@H](O)[C@@H]3CC[C@@H](NCc4cc5c(nn4)OCCS5)CO3)c2n1 ; assay system hERG K+ channel (Homo sapiens, UniProt Q12809); inhibition at 4 min, 10 µM recorded at 0

---

This section lists MIC readings for S. aureus 29213.

In [3]: df
Out[3]:
                                   molecule  measurementkind       obsvalue
0  COc1ccc2ccc(=O)n(C[C@H](O)C3CCC(NCc4cc5c(cn4)OCCO5)CC3)c2n1 (stereo partly drawn)              MIC  ≤ 0.031 µg/mL
1  COc1cnc2ccc(=O)n(C[C@H](O)[C@@H]3CC[C@@H](NCc4cc5c(nn4)OCCS5)CO3)c2n1              MIC     0.25 µg/mL
2  COc1ccc2ncc(=O)n(C[C@H](O)[C@@H]3CC[C@@H](NCc4cc5c(cn4)OCCS5)CO3)c2n1              MIC  ≤ 0.031 µg/mL

Kindly note: S. aureus 29213, COc1ccc2ncc(=O)n(C[C@H](O)C3CCC(NCc4cc5c(cn4)OCCO5)CC3)c2c1 (stereo partly drawn) , MIC value reported: ≤ 0.031 µg/mL

Reading of MIC for COc1ccc2ncc(=O)n(C[C@H](O)[C@@H]3CC[C@@H](NCc4cc5c(cn4)OCCO5)CO3)c2n1 with S. aureus 29213: ≤ 0.031 µg/mL

Simply: COc1ccc2ncc(=O)n(C[C@H](O)[C@@H]3CC[C@@H](NCc4cc5c(cn4)OCCO5)CO3)c2c1 , S. aureus 29213, MIC = ≤ 0.031 µg/mL

---

- studyTarget: hERG K+ channel (Homo sapiens, UniProt Q12809)
- Construct: host or cells: CHO-K1 (CHOhERG)
- assayMethodText: In vitro blocking of hERG K+ channels (QPatch automated patch-clamp, CHO-K1 cells)
- Format: cell-based
- experimentalParameters: pH 7.4, at 10 μM, recombinant hERG in CHO-K1 cells, average block on two cells
inhibition at 4 min, 10 µM of 40% or higher: Y. Under 40%: N.

Previously resolved entries follow.
                                   compound                               studytarget  assignedclass
0  COc1ccc2ccc(=O)n(C[C@H](O)C3CCC(NCc4cc5c(cn4)OCCO5)CC3)c2n1 (some centres unmarked) [Example 6]  hERG K+ channel (Homo sapiens, UniProt Q12809)              N
1  COc1ccc2ccc(=O)n(C[C@H](O)[C@@H]3CC[C@@H](NCc4cc5c(cn4)OCCS5)CO3)c2n1 [Example 1]  hERG K+ channel (Homo sapiens, UniProt Q12809)              N
2  COc1ccc2ccc(=O)n(C[C@H](O)[C@@H]3CC[C@@H](NCc4cc5c(cn4)OCS5)CO3)c2n1 [Example 9]  hERG K+ channel (Homo sapiens, UniProt Q12809)              Y
3  COc1ccc2cc(F)c(=O)n(C[C@H](O)[C@@H]3CC[C@@H](NCc4cc5c(cn4)OCS5)CO3)c2n1 [Example 10]  hERG K+ channel (Homo sapiens, UniProt Q12809)              Y
4  COc1ccc2ncc(=O)n(C[C@H](O)[C@@H]3CC[C@@H](NCc4cc5c(cn4)OCCO5)CO3)c2n1 [Example 4]  hERG K+ channel (Homo sapiens, UniProt Q12809)              N

# check: inhibition at 4 min, 10 µM of COc1ccc2ncc(=O)n(C[C@H](O)[C@@H]3CC[C@@H](NCc4cc5c(nn4)OCCS5)CO3)c2n1 [Example 12] is greater than or equal to 40%
N

Could you tell me if the measured inhibition at 4 min, 10 µM of COc1ccc2ncc(=O)n(C[C@H](O)[C@@H]3CC[C@@H](NCc4cc5c(cn4)OCCO5)CO3)c2c1 [Example 3] reaches 40% or more?
N

Determine whether measured inhibition at 4 min, 10 µM meets or exceeds 40% for COc1ccc2ccc(=O)n(C[C@H](O)[C@@H]3CC[C@@H](NCc4cc5c(nn4)OCCO5)CO3)c2n1 [Example 5]
N

---

These molecules were tested on S. aureus 29213; MIC is the recorded read-out.
Only the number, expressed in µg/mL, is required.

In [3]: df
Out[3]:
                               smilesrecord  obsvalue
0  COc1ccc2ccc(=O)n(C[C@H](O)[C@@H]3CC[C@@H](NCc4cc5c(nn4)OCCO5)CO3)c2n1     0.063
1  COc1ccc2ccc(=O)n(C[C@H](O)[C@@H]3CC[C@@H](NCc4cc5c(nn4)OCCS5)CO3)c2n1       0.5
2  COc1cnc2ccc(=O)n(C[C@H](O)[C@@H]3CC[C@@H](NCc4cc5c(cn4)OCCO5)CO3)c2n1     0.125

Attention now turns to another entry.
Reported MIC (S. aureus 29213) for entry COc1ccc2ncc(=O)n(C[C@H](O)[C@@H]3CC[C@@H](NCc4cc5c(nn4)OCCS5)CO3)c2n1 is 0.063
